- MEASURED_ON: Nuclear receptor subfamily 1 group I member 2 (Homo sapiens) (UniProt O75469)
- Sequence (O75469 whole entry, looked up): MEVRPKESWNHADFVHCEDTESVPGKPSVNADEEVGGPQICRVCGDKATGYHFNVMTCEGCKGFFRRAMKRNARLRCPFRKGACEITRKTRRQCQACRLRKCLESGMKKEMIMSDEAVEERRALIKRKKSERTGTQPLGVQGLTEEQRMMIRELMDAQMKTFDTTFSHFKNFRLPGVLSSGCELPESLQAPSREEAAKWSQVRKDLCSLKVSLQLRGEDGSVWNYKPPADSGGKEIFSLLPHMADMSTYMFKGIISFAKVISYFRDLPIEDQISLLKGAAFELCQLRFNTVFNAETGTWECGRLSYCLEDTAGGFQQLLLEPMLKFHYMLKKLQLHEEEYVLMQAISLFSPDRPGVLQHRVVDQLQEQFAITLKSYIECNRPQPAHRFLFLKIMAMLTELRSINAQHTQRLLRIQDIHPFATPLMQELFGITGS
- TEST: ATG_PXR_TRANS: Attagene TRANS-FACTORIAL HepG2 Assay for human Pregnane X Receptor (PXR) (AID 2283008)
Records with an inconclusive call do not appear. The source made the active and inactive calls. The calls were made as follows: active = hit-call score of the fitted dose curve at least 0.9, where 1 is the maximum; inconclusive = response in the unintended direction; inactive = score below 0.9.
A correct response names exactly one class from True (active), False (inactive)

Hi, do you know how `O=C(CCl)NCO` came out in this test? False

Just curious, what result did `CC(C)(C#N)N=NC(C)(C)C#N` get here? False

Called result for CCOC(=O)C(SP(=S)(OC)OC)c1ccccc1 (centres undefined) True

// return assay outcome for `CCOP(=O)(OCC)SCCSCC` False

Called result for `Cc1cc(-c2cc(C)c(N)c(C)c2)cc(C)c1N` True

Which outcome was assigned to `CN(C)CCN(C)C` in this test? False

Hi, do you know how CN(CCCC(O)c1cccnc1)N=O (centres undefined) came out in this test? False

Recorded test outcome, item `CC(C)O.CC(C)O.OCCN(CCO)CCO.OCCN(CCO)CCO.[Ti]` False

Which outcome was assigned to OC(Cc1ccccc1Cl)(Cn1[nH]cnc1=S)C1(Cl)CC1 (centres undefined) in this test? True

Dear colleague, could you share the recorded outcome for `CNC(=O)N(C)c1nc2ccccc2s1` when you have a moment? True

Hello, I am checking results. What call was entered for `CCN(CC)C(=O)C(Cl)=C(C)OP(=O)(OC)OC` ? False

I'd appreciate the recorded outcome for `CC1(C)[C@H](/C=C2\CCSC2=O)[C@@H]1C(=O)OCc1coc(Cc2ccccc2)c1` from this test. True

Record lookup: outcome of this test for `Oc1cc(Cl)c(Cl)cc1Cl` ? False

// outcome(item) with item = `CC(C)CP(=S)(S)CC(C)C` True

###

- Read-out: Vascular cell adhesion molecule 1 (VCAM1), VCAM1 (gene 7412)
- TEST: BSK_LPS_VCAM1: BioMAP Diversity Plus: LPS Assay for Vascular cell adhesion molecule 1 (VCAM1) Biomarker Activity (AID 2283086)
- CONDITION_INFO: primary human HUVEC with PBMC; actives raise or lower the signal
Active and inactive are the calls of the source. How the source made its calls: active means hit-call score of the fitted dose curve at least 0.9, where 1 is the maximum; inactive means score below 0.9.
Lab note: assign the record to one of active, inactive

How was `c1ccc(-c2cccc(-c3ccccc3)c2)cc1` classified in this test? active

Which outcome did this test record for the molecule `O=C(O)C1(c2ccc3c(c2)OC[C@H](Cc2ccc(-c4ccccc4)cc2)[C@H]3O)CCCC1` ? active

What call does the record list for `Oc1cccc(-c2ccccc2)c1` ? active

For `Cc1ccccc1OP(=O)(Oc1ccccc1C)Oc1ccccc1C` , which call appears in the assay record? active

How was `CC1(C)[C@H](C(=O)O[C@H](C#N)c2cccc(Oc3ccccc3)c2)[C@@H]1/C=C(\Cl)C(F)(F)F` classified in this test? inactive

// outcome(item) with item = `O=C(CCl)NCO` inactive

For `NC(=O)CCl` , what call appears in the results of this test? inactive

Call for entry `CCCCOC(=O)COC(=O)c1ccccc1C(=O)OCCCC` : inactive

Tell me the recorded outcome of this test for `Cc1ccccc1OP(=O)(Oc1ccccc1)Oc1ccccc1` . active

Fill in: this test's call for `Cc1cccc(OP(=O)(Oc2cccc(C)c2)Oc2cccc(C)c2)c1` is ___ inactive

Please share the test call associated with `Clc1cccc(Cl)c1Cl` . inactive

Tell me the recorded outcome of this test for CCC(C)(C#N)N=NC(C)(C#N)CC (stereo not drawn) . inactive

What call does the record list for `CCN(CC)C(=O)C(Cl)=C(C)OP(=O)(OC)OC` ? inactive

What classification did `O=C(N[C@H]1CN2CCC1CC2)c1ccc2c(c1)OCCO2` end up with in this test? inactive

I would be grateful if you could indicate the recorded call for `Oc1c(Cl)cc(Cl)cc1Cl` . inactive

Given `CCOP(=O)(OCC)OC(=CCl)c1ccc(Cl)cc1Cl` , state the outcome it received in this test. inactive

I would be grateful if you could indicate the recorded call for `CN(C)C(=S)S` . inactive

Which result was noted for this molecule in the test: `O=C(O)COc1cc(Cl)c(Cl)cc1Cl` inactive

Assay outcome for `Oc1ccc(Cc2ccc(O)cc2)cc1` : what was it? inactive

For this molecule, state the assay outcome: CCOC(=O)C(SP(=S)(OC)OC)c1ccccc1 (stereo not drawn) active

Given CC(C=O)Cc1ccc2c(c1)OCO2 (stereo not drawn) , state the outcome it received in this test. inactive

Could you kindly confirm the outcome this assay logged for `COCC(=O)N(c1c(C)cccc1C)[C@H](C)C(=O)OC` ? inactive

How did this test come out for `Cc1cc(C)cc(C)c1` ? inactive

I'd appreciate the recorded outcome for `Nc1ccc(N)cc1` from this test. inactive

Hi, sorry to bother you, what did the test record for `CCOC(=O)CC(=O)CCl` ? active

Status in this test for `CCOP(=S)(OCC)SCS(=O)(=O)C(C)(C)C` ? inactive

Hello, I am checking results. What call was entered for `CC(C)(C)c1ccccc1O` ? inactive

# outcome recorded in this test, key = `Cc1c([N+](=O)[O-])c(C)c([N+](=O)[O-])c(C(C)(C)C)c1[N+](=O)[O-]` inactive
